- target_or_system: Alpha-bungarotoxin (Bungarus multicinctus)
- assay_explanation: compounds binding labelled alpha-BTX control protein – biochemical, small-molecule microarray, Alexa647 label, 635/667 nm fluorescence, artefact control for SMM control protein annotation, profiling panel (AID 1117)
- condition_parameters: alpha-BTX-A647 binding fluorescence, higher = more signal
measurement_type: composite z-score
Write the value as a bare number.

compound	target_or_system	composite z-score
CCCCN1CC=CC23O[C@@H]4C=CCCOC(=O)C4[C@H]2C(=O)N(CCCO)[C@@H]3C1=O (some centres not stated)	Alpha-bungarotoxin (Bungarus multicinctus)	-1.13
Cc1ccc(N2C(=O)c3ccccc3[C@](C)(C(=O)NCCN3CCOCC3)[C@@H]2c2ccc(CO)cc2)nc1	Alpha-bungarotoxin (Bungarus multicinctus)	-1.44
Cc1ccccc1/C=C/C=O	Alpha-bungarotoxin (Bungarus multicinctus)	-0.465

Inquiry: Can you look up the measured composite z-score of `C=C[C@@H](C)[C@@H](OC(=O)Nc1ccc(OC)cc1)c1ccc(O)c2ccccc12` for me?
Reply text: -0.511

Inquiry: Try the compound `C=CCOC(=O)[C@@H]1[C@H]2C(=O)O[C@H](c3ccccc3)[C@H](c3ccccc3)N2[C@H](c2ccc(OCCOC(=O)[C@H]3C[C@H]4C(=O)N[C@@H](Cc5ccccc5)C(=O)N4[C@H]3c3ccc(O)cc3)cc2)[C@@]12C(=O)Nc1ccc(I)cc12`
Reply text: 1.66

Inquiry: Repeat with Cn1c2c(c3ccccc31)C(=O)C1NC2C=CC1(C)C(=O)OCc1ccccc1 (configuration not stated)
Reply text: 1.92

Inquiry: Also, C[C@H]1C2[C@H](Cc3ccccc3)NC(=O)[C@]23C(=O)N[C@H](Cc2ccccc2)C(=O)N[C@H](Cc2ccccc2)C(=O)NC/C=C/CCC/C=C/C3[C@@H]2O[C@]12C (some centres not stated) please.
Reply text: 0.617

---

- target_or_system: NADPH oxidase 4 (Homo sapiens)
- assay_explanation: compounds shifting NOX4 Amplex Red fluorescence – cell-based, HEK293-NOX4, tetracycline-induced, NOX inhibitor project, primary screen (AID 1160)
- condition_parameters: HEK293-NOX4, Amplex Red H2O2 fluorescence, 45 min; higher = more signal, called active from +8 up or from −8 down
The source made the active and inactive calls.
measurement_type: z-score

molecule	z-score
CO[C@H]1O[C@H](CO)[C@@H](OC(=O)Nc2cccc(F)c2)[C@H](OC(=O)Nc2ccccc2-c2ccccc2)[C@@H]1OC(=O)Nc1ccccc1-c1ccccc1	-0.551 (inactive)
Cc1ccc(S[C@]2(C(=O)NCCN3CCOCC3)CC(=O)N(C3CCCCC3)[C@@H]2c2ccc(CO)cc2)cc1	1 (inactive)
O=C1OCCC/C=C\[C@H]2OC34C=CCN(CCN5CCOCC5)C(=O)[C@H]3N(CCO)C(=O)[C@@H]4C12 (stereo partly specified)	-0.342 (inactive)
C[N+](C)(C)CCCC[C@@H]1NC(=O)[C@H]2C[C@@H](C(=O)O)[C@@H](c3cccc(OCCO)c3)N2C1=O	0.0916 (inactive)
COc1ccc([Si](C)(C)[C@H]2[C@H](CC(=O)N(CCO)Cc3ccccc3)O[C@@]3(C(=O)N(Cc4cccc(N5C(=O)c6cccc7cccc5c67)c4)c4ccccc43)[C@@H]2C)cc1	0.39 (inactive)
COC(=O)[C@@]1(Cc2ccccc2)[C@H]2c3cc(C(=O)N(C)C)n(Cc4ccccc4)c3C[C@H]2CN1C(=O)c1ccccc1	-0.0416 (inactive)
Cc1c(NC(=O)/C(C#N)=C/C=C/c2ccccc2)c(=O)n(-c2ccccc2)n1C	0.0418 (inactive)
Cc1ccc(S(=O)(=O)N2CC(C(=O)O)=CCC2c2ccccc2)cc1 (stereo unspecified)	-1.02 (inactive)
Cn1c2c(c3ccccc31)C(=O)C1NC2C=CC1(C)C(=O)OCc1ccccc1 (stereo unspecified)	-1.52 (inactive)
COc1ccccc1CN1C(=O)c2ccccc2[C@](Cc2ccccc2I)(C(=O)NCc2ccccc2)[C@@H]1c1ccc(CO)cc1	0.377 (inactive)

Inquiry: // query z-score value for entry CN1C(=O)C2C=CC(C(O)C=Cc3ccc([N+](=O)[O-])cc3)N(N3CCCCC3)C2C1=O (stereo unspecified)
Reply text: -0.397 (inactive)

Inquiry: Would you kindly repeat that for `CCCNC(=O)[C@@]1(C)c2ccccc2C(=O)N(Cc2cc(F)cc(C(F)(F)F)c2)[C@H]1c1ccc(CO)cc1` ?
Reply text: -1.51 (inactive)

Inquiry: Try this molecule too: `COC(=O)[C@@]1(Cc2ccc(F)cc2)[C@H]2c3cc(C(=O)N4CCCC4)n(CCc4ccc(OC)c(Br)c4)c3C[C@H]2CN1C(=O)c1ccccc1`
Reply text: 0.742 (inactive)

Inquiry: Moving on to the next molecule: `C#C[C@H](O[Si](C#CCCCCCC)(C(C)C)C(C)C)c1ccccc1`
Reply text: -0.782 (inactive)

Inquiry: How about `CC(C)N1C(=O)c2ccccc2[C@](C)(C(=O)NCCCN(C)C)[C@@H]1c1ccc(CO)cc1` ?
Reply text: 0.893 (inactive)

Inquiry: Note, next up: `C=CC[C@]1(C(=O)NCCN2CCOCC2)N=C(c2ccc(OCCCO)cc2)O[C@H]1c1ccccc1N=[N+]=[N-]`
Reply text: 1.5 (inactive)
